Each recorded value in this set is attributed to patent US10988477B2.

target: intracellular GCN2 (phosphorylation of the GCN2 substrate eIF2α) (Homo sapiens, UniProt Q9P2K8); experiment: GCN2 cellular inhibition assay (AlphaScreen SureFire P-eIF2α Ser51, borrelidin-treated U2OS cells); assay type: cell-based; settings: compounds of Formula IV; biomarker assay, phosphorylated eIF2α Ser51 in borrelidin-treated U2OS cells
Sequence (Q9P2K8 whole entry): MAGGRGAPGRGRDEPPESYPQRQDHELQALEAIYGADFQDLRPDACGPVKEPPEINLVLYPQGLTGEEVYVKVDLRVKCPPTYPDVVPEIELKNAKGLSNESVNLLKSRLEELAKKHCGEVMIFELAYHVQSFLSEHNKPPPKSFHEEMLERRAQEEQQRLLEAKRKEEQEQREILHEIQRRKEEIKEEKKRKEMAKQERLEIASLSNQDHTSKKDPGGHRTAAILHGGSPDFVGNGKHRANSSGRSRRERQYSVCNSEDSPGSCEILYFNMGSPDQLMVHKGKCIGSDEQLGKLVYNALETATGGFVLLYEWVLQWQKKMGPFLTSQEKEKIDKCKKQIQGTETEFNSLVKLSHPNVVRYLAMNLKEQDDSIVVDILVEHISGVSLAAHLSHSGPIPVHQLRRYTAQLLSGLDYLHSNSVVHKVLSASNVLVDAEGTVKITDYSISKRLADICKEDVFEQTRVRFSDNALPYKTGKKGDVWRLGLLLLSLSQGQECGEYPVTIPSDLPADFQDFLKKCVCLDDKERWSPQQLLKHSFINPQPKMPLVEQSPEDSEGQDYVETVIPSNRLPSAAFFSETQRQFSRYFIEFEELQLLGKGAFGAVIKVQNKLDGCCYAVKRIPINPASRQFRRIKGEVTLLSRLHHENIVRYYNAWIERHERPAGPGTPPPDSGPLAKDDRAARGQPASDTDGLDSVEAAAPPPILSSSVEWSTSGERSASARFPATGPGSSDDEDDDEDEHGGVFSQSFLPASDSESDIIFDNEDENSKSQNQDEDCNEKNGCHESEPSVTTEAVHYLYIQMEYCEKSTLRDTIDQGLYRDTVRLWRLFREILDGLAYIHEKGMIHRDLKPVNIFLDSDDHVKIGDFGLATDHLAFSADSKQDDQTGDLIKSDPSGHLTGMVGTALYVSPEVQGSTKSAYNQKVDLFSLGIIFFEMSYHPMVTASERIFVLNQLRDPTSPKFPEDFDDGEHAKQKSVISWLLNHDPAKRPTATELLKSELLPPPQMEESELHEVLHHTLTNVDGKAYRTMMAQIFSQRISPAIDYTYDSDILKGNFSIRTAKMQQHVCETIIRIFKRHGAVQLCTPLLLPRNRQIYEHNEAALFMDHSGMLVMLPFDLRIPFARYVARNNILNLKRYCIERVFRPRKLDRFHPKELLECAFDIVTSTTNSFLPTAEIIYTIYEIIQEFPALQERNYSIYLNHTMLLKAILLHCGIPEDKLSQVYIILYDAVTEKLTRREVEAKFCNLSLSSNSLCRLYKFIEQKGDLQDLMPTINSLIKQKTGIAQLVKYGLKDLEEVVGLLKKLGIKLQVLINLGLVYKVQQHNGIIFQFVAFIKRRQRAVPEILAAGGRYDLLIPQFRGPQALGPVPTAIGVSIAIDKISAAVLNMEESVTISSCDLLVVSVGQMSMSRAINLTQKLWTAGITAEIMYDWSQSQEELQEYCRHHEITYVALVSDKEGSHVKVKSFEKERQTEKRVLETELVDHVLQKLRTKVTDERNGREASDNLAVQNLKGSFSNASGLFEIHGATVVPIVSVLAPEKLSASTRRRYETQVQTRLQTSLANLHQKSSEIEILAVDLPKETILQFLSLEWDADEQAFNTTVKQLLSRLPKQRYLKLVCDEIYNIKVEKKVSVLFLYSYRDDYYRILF
pIC50: −log10 of the molar value.
reported.property: pIC50

Name the recorded pIC50 for `OCc1ccc(-c2ccnc(-c3cnc4cnc(C(F)F)cn34)n2)s1` .
< 5.30

So what does the record say about pIC50 for CC1CN(c2ccnc(-c3cnc4cnc(C#N)cn34)n2)C(C)C(c2cn[nH]c2)N1 (stereo not drawn) ?
5.30 to 6.30

Report pIC50 for Cc1[nH]ncc1C1CCCN(c2ccnc(-c3cnc4cnc(C(F)(F)F)cn34)n2)C1 (single isomer, unassigned) [IV-470] please.
< 5.30
